Target: Sodium-dependent noradrenaline transporter (Homo sapiens, UniProt P23975)
Sequence (P23975 whole entry): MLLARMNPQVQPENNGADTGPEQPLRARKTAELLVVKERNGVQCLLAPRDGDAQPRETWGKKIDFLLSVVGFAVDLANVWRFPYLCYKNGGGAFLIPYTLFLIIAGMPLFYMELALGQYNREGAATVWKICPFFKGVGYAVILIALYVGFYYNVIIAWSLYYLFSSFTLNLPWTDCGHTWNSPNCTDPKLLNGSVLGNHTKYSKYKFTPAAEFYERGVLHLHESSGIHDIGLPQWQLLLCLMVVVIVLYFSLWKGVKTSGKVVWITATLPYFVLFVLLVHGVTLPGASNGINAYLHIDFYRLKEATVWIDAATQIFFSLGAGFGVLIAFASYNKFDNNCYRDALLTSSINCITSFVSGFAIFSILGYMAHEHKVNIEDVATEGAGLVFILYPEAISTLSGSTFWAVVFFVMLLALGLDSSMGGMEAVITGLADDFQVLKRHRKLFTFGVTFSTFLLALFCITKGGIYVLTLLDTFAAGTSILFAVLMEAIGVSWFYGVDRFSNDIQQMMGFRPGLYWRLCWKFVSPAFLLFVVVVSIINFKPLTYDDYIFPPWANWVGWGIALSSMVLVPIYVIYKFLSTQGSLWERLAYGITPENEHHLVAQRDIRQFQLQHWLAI
Test: In vitro binding affinity against human norepinephrine transporter in human embryonic kidney cell line by using [125I]-RTI-55 radioligand
Assay type: cell-based
pKi: −log10 of the molar value.
readout_name: pKi

>>> measured_result("COC(=O)C1C(c2ccc(/C=C\\Br)cc2)CC2CCC1N2C (stereo not given)")
6.95
>>> measured_result("COC(=O)C1C2CCC(CC1c1ccc(/C=C\\Br)cc1)N2 (stereo not given)")
8.60
>>> measured_result("COC(=O)C1C(c2ccc(/C=C\\I)cc2)CC2CCC1N2C (stereo not given)")
6.35
>>> measured_result("COC(=O)C1C2CCC(CC1c1ccc(C=C(Br)Br)cc1)N2 (stereo not given)")
8.25
>>> measured_result("COC(=O)C1C(c2ccc(C=C(Br)Br)cc2)CC2CCC1N2C (stereo not given)")
6.79

FYI, the data here is from ChEMBL document CHEMBL1149321.
